Origin of values: ChEMBL document CHEMBL2029230

# MEASUREMENT_DESCRIPTION: Metabolic stability in human liver microsomes assessed as compound remaining at 1 uM after 60 mins
# Type: ADME, Microsome
# CONDITION_INFO: read-out: Stability
ENDPOINT_LABEL: remaining at 1 h, 1 µM

Input line: Item under review: Cc1c(-c2ccc(-c3ccc(OC(F)(F)F)cc3)nc2)[nH]c2ccccc2c1=O . Reported remaining at 1 h, 1 µM?
Output line: 60%

---

# MEASUREMENT_DESCRIPTION: Total clearance in rat at 20 mg/kg, po
# Assay type: ADME, organism-based
# Design: dose 20 mg/kg, route oral
# CONDITION_INFO: in vivo
ENDPOINT_LABEL: CL/F
Write your answer as a measured quantity: the number, then the unit.

Input line: Which CL/F is reported for this molecule? Cc1c(-c2ccc(-c3ccc(OC(F)(F)F)cc3)nc2)[nH]c2ccccc2c1=O
Output line: 4.61 mL/min/kg

Input line: Fill in: CL/F of Cc1c(-c2ccc(-c3ccc(OC(F)(F)F)cc3)nc2)nc2ccccc2c1OC(=O)N1CCOCC1 is ___
Output line: 1.63 mL/min/kg
